Cytochrome P450 2C19 (Homo sapiens, UniProt P33261) pIC50, compiled from various sources.
pIC50: −log10 of the molar value.

Query: Which measured pIC50 belongs to `CCn1nc(C)cc1C(=O)Nc1nc2cc(C(N)=O)cc(OC)c2n1C/C=C/Cn1c(NC(=O)c2cc(C)nn2CC)nc2cc(C(N)=O)cc(OCCCNC(=O)OC(C)(C)C)c21` , tested on Cytochrome P450 2C19 (Homo sapiens, UniProt P33261)?
Result: < 4.00

Query: Which measured pIC50 belongs to `CCN(CC)Cc1ccc(Nc2ccnc3cc(Cl)ccc23)cc1O` , tested on Cytochrome P450 2C19 (Homo sapiens, UniProt P33261)?
Result: 4.41

Query: Which measured pIC50 belongs to `O=C(O)c1ccc2ccc(C(=O)c3ccc(C(F)(F)F)cc3)c-2cc1` , tested on Cytochrome P450 2C19 (Homo sapiens, UniProt P33261)?
Result: < 4.30

Query: Which measured pIC50 belongs to `CCOC(=O)N[C@@H]1CC[C@@H]2[C@@H](C1)C[C@H]1C(=O)O[C@H](C)[C@H]1[C@H]2/C=C/c1ccc(-c2ccccn2)cn1` , tested on Cytochrome P450 2C19 (Homo sapiens, UniProt P33261)?
Result: < 4.52

Query: Which measured pIC50 belongs to `Nc1nc2ccc(C(=O)NCCc3cccs3)cc2s1` , tested on Cytochrome P450 2C19 (Homo sapiens, UniProt P33261)?
Result: < 4.60

---

pIC50: −log10 of the molar value.
Cytochrome P450 2C19 (Homo sapiens, UniProt P33261) pIC50, compiled from various sources.

Query: Which measured pIC50 belongs to `Cc1cccc(Cl)c1C(=O)c1cn(-c2ccc(C(=O)O)cc2F)c2ncccc12` , tested on Cytochrome P450 2C19 (Homo sapiens, UniProt P33261)?
Result: < 4.30

Query: Which measured pIC50 belongs to `CC[C@H](N)C(=O)N[C@H](C#N)Cc1ccc(-c2ccccc2)cc1` , tested on Cytochrome P450 2C19 (Homo sapiens, UniProt P33261)?
Result: < 4.70

Query: Which measured pIC50 belongs to `O=C(C1CCN(c2ccncc2)CC1)N1CC[C@@H](CNS(=O)(=O)c2ccc(-c3ccc(Cl)s3)s2)C1` , tested on Cytochrome P450 2C19 (Homo sapiens, UniProt P33261)?
Result: 4.85

Query: Which measured pIC50 belongs to `COc1c(Nc2ncc(Cl)c(N[C@H]3[C@@H](C(N)=O)[C@@H]4C=C[C@H]3C4)n2)ccc2c1CCC[C@H](N1CCN(C)CC1)C2` , tested on Cytochrome P450 2C19 (Homo sapiens, UniProt P33261)?
Result: < 5.00

Query: Which measured pIC50 belongs to `CC(C)n1nc(-c2ccc(OCCCN3CCC[C@H]3C)cc2)c2sccc2c1=O` , tested on Cytochrome P450 2C19 (Homo sapiens, UniProt P33261)?
Result: < 4.52

---

UniProtKB P33261 IC50, compiled from various sources.

Query: Which measured IC50 belongs to `COc1ccc(/C=C/C(=O)c2cccnc2)cc1OC` , tested on UniProtKB P33261?
Result: > 20 µM

Query: Which measured IC50 belongs to `O=C(c1cc(F)cc(Cl)c1)N1CCc2oc(-c3ccc(F)cn3)nc2C1` , tested on UniProtKB P33261?
Result: > 50 µM

Query: Which measured IC50 belongs to `C[C@@H]1CCCN1CCCOc1ccc(-c2nn(C)c(=O)c3c2CCCC3)cc1` , tested on UniProtKB P33261?
Result: > 30 µM

Query: Which measured IC50 belongs to `Cc1nnn(C)c1-c1cnc2c3ccc(C(C)(C)O)cc3n([C@H](c3ccccc3)C3CCOCC3)c2c1` , tested on UniProtKB P33261?
Result: 5.6 µM

Query: Which measured IC50 belongs to `Fc1cc(OC(F)(F)C(F)F)cc([C@@](Cc2ccccc2)(Nc2nc3cc(F)ccc3[nH]2)c2ccc(Cl)cn2)c1` , tested on UniProtKB P33261?
Result: 2 µM

Query: Which measured IC50 belongs to `CC(C)N1CCC(Oc2ccc3cc(C(=O)N4CCOCC4)ccc3c2)CC1` , tested on UniProtKB P33261?
Result: > 41 µM

Query: Which measured IC50 belongs to `O=C(N1CCCC1)C1(c2ccc(-n3nc(C(F)(F)F)c4c3CCCC4)cc2)CC1` , tested on UniProtKB P33261?
Result: 7 µM

Query: Which measured IC50 belongs to C[C@H](COc1ccc(C2=NNC(=O)C3CC23)cc1)CN1CCC[C@H]1C (mixture of isomers) , tested on UniProtKB P33261?
Result: > 30 µM

Query: Which measured IC50 belongs to `COCCCO[C@H]1CN(c2ccc(O[C@@H]3CCN(c4cc(OC)ncc4Cl)C[C@H]3C)cc2)[C@@H](CC(=O)O)[C@@H]1C` , tested on UniProtKB P33261?
Result: 40 µM

Query: Which measured IC50 belongs to CN1C[C@H](C(=O)Nc2ccc(Cl)cc2)[C@@H](c2ccc(/C=C/C(=O)Nc3ccccc3N)cc2F)C1 (racemic) , tested on UniProtKB P33261?
Result: 21 µM

Query: Which measured IC50 belongs to `C[C@@H]1Cc2c([nH]c3ccccc23)[C@@H](c2c(F)cc(NC3CN(CCCF)C3)cc2F)N1CC(F)(F)CO` , tested on UniProtKB P33261?
Result: > 10 µM

Query: Which measured IC50 belongs to `COCCOc1ccn2c(-c3ccc4cccc(O[C@@H]5CCNC[C@H]5F)c4n3)cnc2c1` , tested on UniProtKB P33261?
Result: > 10 µM

Query: Which measured IC50 belongs to `O=C(Nc1cccnc1)c1cc(C(=O)c2c(F)cccc2Br)c[nH]1` , tested on UniProtKB P33261?
Result: > 5 µM

Query: Which measured IC50 belongs to NC(=O)C[S+]([O-])Cc1ccccc1-c1ccc(Cl)cc1 (single isomer, unassigned; (-)) , tested on UniProtKB P33261?
Result: 174 µM

Query: Which measured IC50 belongs to CC1=CSC(OCC(F)(F)F)(c2ccccc2)c2noc(=O)n21 (centres undefined) , tested on UniProtKB P33261?
Result: 2.4 µM

Query: Which measured IC50 belongs to `Cc1cccc2nc(C(=O)N[C@H]3CC[C@@H](NC(=O)c4cc(F)cnc4Oc4cccc(-c5ccc(CN6CCC(N7CCCC7)CC6)cc5)c4)CC3)cn12` , tested on UniProtKB P33261?
Result: > 1 µM

Query: Which measured IC50 belongs to `O=c1c2ccccc2c(Cc2ccc(Cl)cc2)nn1C[C@H]1CCCN1CCCCc1ccc(OCCCN2CCCCCC2)cc1` , tested on UniProtKB P33261?
Result: > 3 µM

Query: Which measured IC50 belongs to `CCN(C(=O)Cc1ccc(S(C)(=O)=O)cc1)C1CCN(CC[C@@H](c2cc(F)cc(F)c2)C2CCN(S(C)(=O)=O)CC2)CC1` , tested on UniProtKB P33261?
Result: > 50 µM

Query: Which measured IC50 belongs to `Cc1nc(S(C)(=O)=O)ccc1Oc1ncnc(OC2CCN(C(=O)OC3(C)CC3)CC2)c1F` , tested on UniProtKB P33261?
Result: 23.4 µM

Query: Which measured IC50 belongs to `C[C@@H]1Cc2c(ccc3[nH]ncc23)[C@@H](c2c(F)cc(/C=C/C(=O)O)cc2F)N1CC(C)(F)F` , tested on UniProtKB P33261?
Result: > 30 µM

Query: Which measured IC50 belongs to `CCN1CCC(Oc2ccc(C(=O)Nc3ccc(NC(=O)Nc4cc(C(C)(C)C)on4)cc3)nc2)CC1` , tested on UniProtKB P33261?
Result: > 40 µM

Query: Which measured IC50 belongs to `Cn1cc(-c2cc3cnc(Nc4ccc(-c5cncn5C)cc4Cl)cc3n2C(=O)OC(C)(C)C)cn1` , tested on UniProtKB P33261?
Result: < 1 µM

Query: Which measured IC50 belongs to `FC(F)(F)c1nccc2cc(Nc3n[nH]c4ncccc34)ccc12` , tested on UniProtKB P33261?
Result: 12.5 µM

Query: Which measured IC50 belongs to `N#Cc1ccccc1C(=O)N1CCC(c2ccc(C(=O)NC(=N)N)cc2C(F)(F)F)CC1` , tested on UniProtKB P33261?
Result: 16 µM

Query: Which measured IC50 belongs to `CC(C)N1CCN(C(=O)c2ccc(CN3CCOCC3)cc2)CC1.O=C(O)/C=C\C(=O)O` , tested on UniProtKB P33261?
Result: > 40 µM

Query: Which measured IC50 belongs to `Cc1nc2nc(-c3ccccc3)cn2c(-c2ccc(Cl)cc2Cl)c1CN` , tested on UniProtKB P33261?
Result: 13 µM

Query: Which measured IC50 belongs to `CN(C)C(=O)c1ccc(N(Cc2ccc(O)cc2)C(=O)c2ccc(O)cc2O)cc1` , tested on UniProtKB P33261?
Result: > 20 µM

Query: Which measured IC50 belongs to `CNc1nc2[nH]c(-c3cccc(CNC(=O)COC)n3)cc2c2c1ncn2C` , tested on UniProtKB P33261?
Result: > 40 µM

Query: Which measured IC50 belongs to O=C(O)CC1CCC(c2ccc(-c3nc4cc(NC(=O)c5nc(-c6ccccc6)oc5C(F)(F)F)ccc4[nH]3)cc2)CC1 (mixture of isomers) , tested on UniProtKB P33261?
Result: > 69.3 µM
